B1: KRT18 (parent)
chain: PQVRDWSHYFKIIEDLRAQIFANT

variants of: B1; assay: protein stability index of a GFP-peptide fusion (GPS, HEK-293T) (PSI 1-6); higher = more stable; settings: c terminus: a fixed tail appended;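 note: lentivirally expressed fusions sorted by FACS into six bins by GFP to DsRed ratio, PSI derived from sequencing read proportions per bin multiplied by bin number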
PARAMETER MEASURED: protein stability index
Lab note: jot the number down without any unit.

Challenge: Which measured protein stability index value corresponds to W6K ?
Response given: 1.97

Challenge: Which measured protein stability index value corresponds to K11L ?
Response given: 3.02

Challenge: Which measured protein stability index value corresponds to I12P ?
Response given: 2.24

Challenge: Which measured protein stability index value corresponds to A22N ?
Response given: 2.53

Challenge: Which measured protein stability index value corresponds to E14R ?
Response given: 2.27

More entries:
Challenge: Which measured protein stability index value corresponds to W6P ?
Response given: 2.21

Challenge: Which measured protein stability index value corresponds to Q19A ?
Response given: 2.05

Challenge: Which measured protein stability index value corresponds to Y9H ?
Response given: 2.5

Challenge: Which measured protein stability index value corresponds to W6M ?
Response given: 2.15

Challenge: Which measured protein stability index value corresponds to A18C ?
Response given: 1.94

Challenge: Which measured protein stability index value corresponds to A22T ?
Response given: 2.14

Challenge: Which measured protein stability index value corresponds to R4V ?
Response given: 2.09
